Mean % WT Binding values by entry
- assay-system: human CD33 variant D51K (human, UniProt P20138 18-364)
- Sequence (P20138 18-364 D51K limits assumed): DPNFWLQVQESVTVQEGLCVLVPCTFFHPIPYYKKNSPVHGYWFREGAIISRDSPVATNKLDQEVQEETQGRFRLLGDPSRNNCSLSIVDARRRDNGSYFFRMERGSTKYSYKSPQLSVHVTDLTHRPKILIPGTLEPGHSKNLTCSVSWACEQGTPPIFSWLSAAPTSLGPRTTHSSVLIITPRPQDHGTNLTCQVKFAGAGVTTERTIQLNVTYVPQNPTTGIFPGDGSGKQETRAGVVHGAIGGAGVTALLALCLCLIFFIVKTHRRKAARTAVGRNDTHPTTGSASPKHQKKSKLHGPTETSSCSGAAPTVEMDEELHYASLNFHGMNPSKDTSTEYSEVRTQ
- assay-info: flow cytometry, IgG on cells expressing the mutant
readout: Mean % WT Binding

Refmab #2 (antibody, human IgG1, V domains shown, Tested in IgG format; human IgG1 Fc silent (PG-LALA)) VH: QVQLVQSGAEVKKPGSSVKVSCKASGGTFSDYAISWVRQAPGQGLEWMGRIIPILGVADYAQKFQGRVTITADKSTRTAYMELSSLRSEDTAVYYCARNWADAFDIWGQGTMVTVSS VL: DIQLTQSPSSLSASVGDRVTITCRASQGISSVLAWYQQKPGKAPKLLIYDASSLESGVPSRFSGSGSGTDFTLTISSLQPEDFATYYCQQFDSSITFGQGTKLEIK	2.7 % of WT
Refmab #3 (antibody, human IgG1, V domains shown, Tested in IgG format; human IgG1 Fc silent (PG-LALA)) VH: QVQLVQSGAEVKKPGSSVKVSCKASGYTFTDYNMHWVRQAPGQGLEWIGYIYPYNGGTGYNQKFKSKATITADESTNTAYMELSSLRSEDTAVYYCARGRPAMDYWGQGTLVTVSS VL: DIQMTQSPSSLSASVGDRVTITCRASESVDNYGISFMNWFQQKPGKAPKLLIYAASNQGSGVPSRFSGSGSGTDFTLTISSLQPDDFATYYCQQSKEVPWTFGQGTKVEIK	88.9 % of WT
Refmab #4 (antibody, human IgG1, V domains shown, Tested in IgG format; human IgG1 Fc silent (PG-LALA)) VH: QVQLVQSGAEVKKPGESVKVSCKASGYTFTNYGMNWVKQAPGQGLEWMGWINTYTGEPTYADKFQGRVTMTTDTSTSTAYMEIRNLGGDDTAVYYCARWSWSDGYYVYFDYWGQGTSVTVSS VL: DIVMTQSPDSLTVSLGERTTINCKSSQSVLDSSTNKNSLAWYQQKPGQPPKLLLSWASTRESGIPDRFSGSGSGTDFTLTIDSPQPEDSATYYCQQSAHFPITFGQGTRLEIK	42 % of WT
Refmab #1 (antibody, human IgG1, V domains shown, Tested in IgG format; human IgG1 (Absolute Antibody hP67.6, Cat. No. Ab00283-10.0); also called hP67.6) VH: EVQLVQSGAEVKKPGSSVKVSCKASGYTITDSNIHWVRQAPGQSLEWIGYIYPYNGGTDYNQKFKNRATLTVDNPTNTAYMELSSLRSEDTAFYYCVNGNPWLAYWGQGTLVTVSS VL: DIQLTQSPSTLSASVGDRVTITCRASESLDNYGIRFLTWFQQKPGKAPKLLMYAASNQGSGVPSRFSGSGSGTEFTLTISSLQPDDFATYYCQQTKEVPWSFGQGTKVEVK	90.7 % of WT
